- protocol-text: Pharmacokinetics following PO administration to dogs, Study A (oxycodone in plasma)
- run-parameters: male, beagle, dog, plasma, po, 2 mg/kg
outcome-measure: Tmax (min)
Give bare numbers, in min.

[ask] Item COc1ccc2c3c1O[C@H]1C(=O)CC[C@@]4(O)[C@@H](C2)N(C)CC[C@]314.Cl [Oxycodone, oxycodone HCl, reference compound] : provide Tmax
[reply] 30

---

- protocol-text: Pharmacokinetics following PO administration to dogs, Study A (oxycodone in plasma)
- run-parameters: male, beagle, dog, plasma, po, 2 mg/kg
outcome-measure: Cmax (ng/mL)
One number for each entry, in ng/mL.

[ask] Item COc1ccc2c3c1O[C@H]1C(=O)CC[C@@]4(O)[C@@H](C2)N(C)CC[C@]314.Cl [Oxycodone, oxycodone HCl, reference compound] : provide Cmax
[reply] 193
